- Target or test system: Sodium channel protein type 9 subunit alpha (Homo sapiens)
- Sequence (Q15858 whole entry): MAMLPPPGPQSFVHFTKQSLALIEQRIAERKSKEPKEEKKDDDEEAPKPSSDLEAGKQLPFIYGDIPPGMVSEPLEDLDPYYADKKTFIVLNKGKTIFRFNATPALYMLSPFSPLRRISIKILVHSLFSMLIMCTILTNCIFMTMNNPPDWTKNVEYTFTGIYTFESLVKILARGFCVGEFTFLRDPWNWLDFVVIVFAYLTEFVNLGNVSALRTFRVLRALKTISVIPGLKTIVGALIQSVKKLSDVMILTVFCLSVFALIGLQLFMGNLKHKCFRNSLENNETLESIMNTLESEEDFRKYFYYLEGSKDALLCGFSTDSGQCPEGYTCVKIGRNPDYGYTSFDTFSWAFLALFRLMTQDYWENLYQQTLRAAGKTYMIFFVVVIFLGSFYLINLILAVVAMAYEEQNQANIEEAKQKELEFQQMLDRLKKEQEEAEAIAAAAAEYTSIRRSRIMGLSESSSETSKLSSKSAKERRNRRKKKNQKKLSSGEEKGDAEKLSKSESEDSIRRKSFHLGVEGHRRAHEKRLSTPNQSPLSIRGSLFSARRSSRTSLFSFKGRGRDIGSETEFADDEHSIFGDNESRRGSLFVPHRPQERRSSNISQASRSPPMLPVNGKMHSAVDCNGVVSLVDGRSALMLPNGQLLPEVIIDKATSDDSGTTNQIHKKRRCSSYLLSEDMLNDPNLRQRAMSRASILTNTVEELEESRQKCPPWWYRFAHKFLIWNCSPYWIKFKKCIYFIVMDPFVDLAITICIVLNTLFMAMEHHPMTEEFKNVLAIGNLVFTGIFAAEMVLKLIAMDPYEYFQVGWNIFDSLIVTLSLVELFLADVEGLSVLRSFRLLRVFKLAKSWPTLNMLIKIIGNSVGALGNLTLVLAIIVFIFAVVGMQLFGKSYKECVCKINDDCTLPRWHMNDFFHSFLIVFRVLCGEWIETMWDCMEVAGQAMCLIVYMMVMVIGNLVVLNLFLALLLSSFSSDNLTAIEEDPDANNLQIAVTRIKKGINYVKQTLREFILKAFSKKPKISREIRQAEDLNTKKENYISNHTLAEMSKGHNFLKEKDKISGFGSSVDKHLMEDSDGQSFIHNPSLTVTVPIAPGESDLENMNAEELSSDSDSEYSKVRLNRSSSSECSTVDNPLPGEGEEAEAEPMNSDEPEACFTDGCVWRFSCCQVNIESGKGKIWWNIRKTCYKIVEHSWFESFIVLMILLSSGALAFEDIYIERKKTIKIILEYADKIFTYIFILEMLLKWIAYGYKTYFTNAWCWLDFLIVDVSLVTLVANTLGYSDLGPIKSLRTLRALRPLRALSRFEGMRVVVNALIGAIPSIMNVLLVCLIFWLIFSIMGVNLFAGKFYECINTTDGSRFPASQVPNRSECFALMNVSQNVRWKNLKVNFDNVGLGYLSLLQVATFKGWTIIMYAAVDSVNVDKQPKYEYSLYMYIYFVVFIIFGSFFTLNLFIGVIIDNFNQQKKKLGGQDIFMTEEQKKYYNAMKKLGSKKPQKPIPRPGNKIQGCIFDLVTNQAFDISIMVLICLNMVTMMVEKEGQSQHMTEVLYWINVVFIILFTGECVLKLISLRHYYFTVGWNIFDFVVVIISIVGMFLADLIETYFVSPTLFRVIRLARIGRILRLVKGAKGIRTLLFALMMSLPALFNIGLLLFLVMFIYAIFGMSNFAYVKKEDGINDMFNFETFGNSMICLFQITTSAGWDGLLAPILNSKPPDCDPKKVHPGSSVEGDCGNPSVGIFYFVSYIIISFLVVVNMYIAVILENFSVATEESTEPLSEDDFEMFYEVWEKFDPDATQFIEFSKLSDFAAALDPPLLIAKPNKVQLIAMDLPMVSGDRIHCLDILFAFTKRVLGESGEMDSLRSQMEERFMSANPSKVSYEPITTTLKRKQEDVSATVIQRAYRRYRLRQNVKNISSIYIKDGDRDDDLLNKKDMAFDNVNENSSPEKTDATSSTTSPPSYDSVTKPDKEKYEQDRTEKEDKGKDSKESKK
- Protocol summary: Inhibition of human Nav1.7 expressed in HEK293 cells after 600 secs at -60 mV holding potential by ion works barracuda population patch clamp method
- Assay type: cell-based
Assay metric: IC50 (nM)

Record excerpt, results attached:
Cn1cc(-c2ccc(C(F)(F)F)cc2)c2ccc(C(=O)NS(=O)(=O)C3CC3)cc21 ... 104
COc1cc(-c2cn(C)c3cc(C(=O)NS(C)(=O)=O)ccc23)cnc1OCC(C)C ... 510
CC(C)COc1ncc(-c2c3ccc(C(=O)NS(=O)(=O)C4CC4)cc3nn2C)cc1Cl ... 190

(A) Cn1cc(-c2cnc(OCC3CC3)c(Cl)c2)c2ccc(C(=O)NS(C)(=O)=O)cc21
(B) Cn1cc(-c2cnc(OCC(F)(F)F)c(Cl)c2)c2ccc(C(=O)NS(C)(=O)=O)cc21
// compare measured IC50 between A and B ; output the lower one Lab log: write the label of the selected item as the result.
B

Reference source: ChEMBL document CHEMBL4371076
